# System: HeLa
# experiment.description: Primary qHTS to identify gynecologic anti-cancer compounds using libraries of approved drugs and bioactive compounds (AID 1345084); also: nearly all actives have a fitted effect of over 55% in size
# assay.setup: Gynecologic cancer cell panel viability, ATPlite luminescence, 48 h; series mostly up to 57.5 µM
Results filed as inconclusive are left out. The source made the active and inactive calls. Calls follow the shape of the dose curve; as a rule, active = well fitted cell-killing curve with a large enough effect; inconclusive = small, poorly fitted or top-dose-only effect, or effect the other way; inactive = flat fitted curve, though single readings scatter.
Your reply should match one of these outcome classes. active, inactive

Problem: Could you please tell me the result logged for `CCOc1ccc(CCNC(=O)c2cc3sc(Cl)cc3n2C)cc1OCC` in this assay?
Result: inactive

Problem: Could you please tell me the result logged for `COc1cc(N2CCC(N3CCN(C)CC3)CC2)ccc1Nc1ncc(Cl)c(Nc2ccccc2P(C)(C)=O)n1` in this assay?
Result: active

Problem: Could you please tell me the result logged for `O=S(=O)(c1ccccc1)N(CC(F)(F)F)c1ccc(C(O)(C(F)(F)F)C(F)(F)F)cc1` in this assay?
Result: inactive

Problem: Could you please tell me the result logged for `O=C(O)c1ccc(S(=O)(=O)N(Cc2ccc(OC(F)(F)F)cc2)c2ncc(C(F)(F)F)cc2Cl)cc1` in this assay?
Result: inactive

Problem: Could you please tell me the result logged for `O=C(Cc1c(F)cccc1F)Nc1cc(OCc2ccc(Cl)cc2)ccn1` in this assay?
Result: inactive

Problem: Could you please tell me the result logged for `C[C@H](CN(C)C)Oc1nc(Nc2cc3cccc(Cl)c3cn2)cnc1C#N` in this assay?
Result: inactive

Problem: Could you please tell me the result logged for `C[C@H](Oc1cc(-n2cnc3ccc(CN4CCN(C)CC4)cc32)sc1C(N)=O)c1ccccc1C(F)(F)F` in this assay?
Result: active

Problem: Could you please tell me the result logged for `O=C(c1c(F)ccc(NS(=O)(=O)N2CC[C@@H](F)C2)c1F)c1c[nH]c2ncc(-c3cnc(C4CC4)nc3)cc12` in this assay?
Result: inactive

Problem: Could you please tell me the result logged for `Cc1cc(C(=O)Nc2cc(Nc3ccc4c(/C=C/c5ccccn5)n[nH]c4c3)ccc2F)n(C)n1` in this assay?
Result: inactive
